Tested on: PDC KRAS tumor spheroids with HUVEC/MSC, viability
assay-info: Anticancer human tumor 349418-098-R-PDC patient-derived lung adenocarcinoma cell line growth inhibition [KRAS2]
study-conditions: second compound 0.1 µM; first compound 0.0316 µM; stronger effect = lower value
Documented viability, T/C across a set of compounds
Could you give me the number in %? Just the number is fine.

[
  {
    "compound": "Cn1nccc1Nc1nccc(-c2cc3c(s2)C(C)(C)N(CCN2CCOCC2)C3=O)n1 + CC1OCC2(CCN(c3cnc(Sc4ccnc(N)c4Cl)c(N)n3)CC2)C1N",
    "unit-symbol": "%",
    "viability, T/C": 68.8
  },
  {
    "compound": "CC(C)NCC(C(=O)N1CCN(c2ncnc3c2C(C)CC3O)CC1)c1ccc(Cl)cc1 (stereo not given) + CC1OCC2(CCN(c3cnc(Sc4ccnc(N)c4Cl)c(N)n3)CC2)C1N",
    "unit-symbol": "%",
    "viability, T/C": 98.9
  },
  {
    "compound": "CCNC(=O)CC1N=C(c2ccc(Cl)cc2)c2cc(OC)ccc2-n2c(C)nnc21 (stereo not given) + COc1cc2nc(C)nc(NC(C)c3cc(N)cc(C(F)(F)F)c3)c2cc1OC1CCOC1",
    "unit-symbol": "%",
    "viability, T/C": 80
  }
]

Lookup: Provide only the value of recorded viability, T/C for CC(=O)OC12COC1CC(O)C1(C)C(=O)C(O)C3=C(C)C(OC(=O)C(O)C(NC(=O)OC(C)(C)C)c4ccccc4)CC(O)(C(OC(=O)c4ccccc4)C21)C3(C)C (stereo not given) + C=CC(=O)N1CCN(c2nc(=O)n(-c3c(C)ccnc3C(C)C)c3nc(-c4c(O)cccc4F)c(F)cc23)C(C)C1
Found: 12.3

Lookup: Provide only the value of recorded viability, T/C for COC(=O)c1ccc2c(C(=Nc3ccc(N(C)C(=O)CN4CCN(C)CC4)cc3)c3ccccc3)c(O)[nH]c2c1 + CNCc1ccccc1-c1csc(C(C)Nc2nc(C)nc3cc(OC)c(OC)cc23)c1
Found: 84.1

----------
System: PDC KRAS tumor spheroids with HUVEC/MSC, viability
assay-info: Anticancer human tumor 349418-098-R-PDC cell line growth inhibition [KRAS2]; active = viability on the fitted dose curve at most 10% of control; inactive = the rest;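 note: spheroids exposed to compounds for seven days before readout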
study-conditions: second compound 10 µM; first compound 1 µM
Returns: one label drawn from 1 (active), -1 (inactive)

Reference set (3 entries):
[
  {
    "molecule": "CC1COCCN1c1cc(-c2ccnn2C)c2ccnc(-c3ccn[nH]3)c2n1 (centres undefined) + CNCc1ccccc1-c1csc(C(C)Nc2nc(C)nc3cc(OC)c(OC)cc23)c1",
    "assigned-category": 1
  },
  {
    "molecule": "CC(=O)OC12COC1CC(O)C1(C)C(=O)C(O)C3=C(C)C(OC(=O)C(O)C(NC(=O)OC(C)(C)C)c4ccccc4)CC(O)(C(OC(=O)c4ccccc4)C21)C3(C)C (centres undefined) + C=CC(=O)N1CCN(c2nc(=O)n(-c3c(C)ccnc3C(C)C)c3nc(-c4c(O)cccc4F)c(F)cc23)C(C)C1",
    "assigned-category": -1
  },
  {
    "molecule": "CC1COCCN1c1cc(-c2ccnn2C)c2ccnc(-c3ccn[nH]3)c2n1 (centres undefined) + COc1cc2nc(C)nc(NC(C)c3cc(N)cc(C(F)(F)F)c3)c2cc1OC1CCOC1",
    "assigned-category": 1
  }
]

// next entry
Lookup: Identify the outcome logged in this assay for the molecule shown: COc1cc(Nc2ncc3c(n2)-c2ccc(Cl)cc2C(c2c(F)cccc2OC)=NC3)ccc1C(=O)O + CNCc1ccccc1-c1csc(C(C)Nc2nc(C)nc3cc(OC)c(OC)cc23)c1
Found: 1

----------
Tested on: PDC KRAS tumor spheroids with HUVEC/MSC, viability
assay-info: Anticancer human tumor 349418-098-R-PDC cell line growth inhibition [KRAS2];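 note: spheroids exposed to compounds for seven days before readout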
study-conditions: curve of first compound; second compound 10 µM
pIC50: −log10 of the molar value.
Documented pIC50 across a set of compounds

Please review the entries below; each comes with its answer.
[
  {
    "compound": "COC(=O)c1ccc2c(C(=Nc3ccc(N(C)C(=O)CN4CCN(C)CC4)cc3)c3ccccc3)c(O)[nH]c2c1 + C=CC(=O)N1CCN(c2nc(=O)n(-c3c(C)ccnc3C(C)C)c3nc(-c4c(O)cccc4F)c(F)cc23)C(C)C1",
    "pIC50": "> 7.50"
  },
  {
    "compound": "CN(C)C/C=C/C(=O)Nc1cc2c(Nc3ccc(F)c(Cl)c3)ncnc2cc1O[C@H]1CCOC1 + CNCc1ccccc1-c1csc(C(C)Nc2nc(C)nc3cc(OC)c(OC)cc23)c1",
    "pIC50": "> 9.50"
  }
]

Lookup: Recall the reported pIC50 of CCNC(=O)CC1N=C(c2ccc(Cl)cc2)c2cc(OC)ccc2-n2c(C)nnc21 (stereo not drawn) + C=CC(=O)N1CCN(c2nc(=O)n(-c3c(C)ccnc3C(C)C)c3nc(-c4c(O)cccc4F)c(F)cc23)C(C)C1 when tested on PDC KRAS tumor spheroids with HUVEC/MSC, viability.
Found: > 7.50

----------
System: PDC KRAS tumor spheroids with HUVEC/MSC, viability
assay-info: Anticancer human tumor 349418-098-R-PDC cell line growth inhibition [KRAS2]; active = viability on the fitted dose curve at most 10% of control; inactive = the rest;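 note: spheroids exposed to compounds for seven days before readout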
study-conditions: second compound 0.1 µM; first compound 0.1 µM
Returns: one label drawn from true (active), false (inactive)

[
  {
    "molecule": "O=C(c1cc(Cc2n[nH]c(=O)c3ccccc23)ccc1F)N1CCN(C(=O)C2CC2)CC1 + C=CC(=O)N1CCN(c2nc(=O)n(-c3c(C)ccnc3C(C)C)c3nc(-c4c(O)cccc4F)c(F)cc23)C(C)C1",
    "assigned-category": "false"
  },
  {
    "molecule": "CC1OCC2(CCN(c3cnc(Sc4ccnc(N)c4Cl)c(N)n3)CC2)C1N (stereo unspecified) + C=CC(=O)N1CCN(c2nc(OCC3CCCN3C)nc3c2CCN(c2cccc4cccc(C)c24)C3)CC1CC#N",
    "assigned-category": "false"
  },
  {
    "molecule": "COc1cc(Nc2ncc3c(n2)-c2ccc(Cl)cc2C(c2c(F)cccc2OC)=NC3)ccc1C(=O)O + C=CC(=O)N1CCN(c2nc(OCC3CCCN3C)nc3c2CCN(c2cccc4cccc(C)c24)C3)CC1CC#N",
    "assigned-category": "false"
  },
  {
    "molecule": "COc1cc(Nc2ncc3c(n2)-c2ccc(Cl)cc2C(c2c(F)cccc2OC)=NC3)ccc1C(=O)O + CNCc1ccccc1-c1csc(C(C)Nc2nc(C)nc3cc(OC)c(OC)cc23)c1",
    "assigned-category": "false"
  },
  {
    "molecule": "O=C(c1cc(Cc2n[nH]c(=O)c3ccccc23)ccc1F)N1CCN(C(=O)C2CC2)CC1 + CC1OCC2(CCN(c3cnc(Sc4ccnc(N)c4Cl)c(N)n3)CC2)C1N",
    "assigned-category": "false"
  }
]

Lookup: Identify the outcome logged in this assay for the molecule shown: CC1(C)CCC(CN2CCN(c3ccc(C(=O)NS(=O)(=O)c4ccc(NCC5CCOCC5)c([N+](=O)[O-])c4)c(Oc4cnc5[nH]ccc5c4)c3)CC2)=C(c2ccc(Cl)cc2)C1 + COc1cc2nc(C)nc(NC(C)c3cc(N)cc(C(F)(F)F)c3)c2cc1OC1CCOC1
Found: false

Lookup: Identify the outcome logged in this assay for the molecule shown: COc1cc(Nc2ncc3c(n2)-c2ccc(Cl)cc2C(c2c(F)cccc2OC)=NC3)ccc1C(=O)O + COc1cc2nc(C)nc(NC(C)c3cc(N)cc(C(F)(F)F)c3)c2cc1OC1CCOC1
Found: false

Lookup: Identify the outcome logged in this assay for the molecule shown: CC(C)n1nc(-c2ccc3oc(N)nc3c2)c2c(N)ncnc21 + C=CC(=O)N1CCN(c2nc(=O)n(-c3c(C)ccnc3C(C)C)c3nc(-c4c(O)cccc4F)c(F)cc23)C(C)C1
Found: true

Lookup: Identify the outcome logged in this assay for the molecule shown: COc1cc2nccc(Oc3ccc(NC(=O)C4(C(=O)Nc5ccc(F)cc5)CC4)cc3)c2cc1OC + CNCc1ccccc1-c1csc(C(C)Nc2nc(C)nc3cc(OC)c(OC)cc23)c1
Found: false

Lookup: Identify the outcome logged in this assay for the molecule shown: COc1cc2nccc(Oc3ccc(NC(=O)C4(C(=O)Nc5ccc(F)cc5)CC4)cc3)c2cc1OC + CC1OCC2(CCN(c3cnc(Sc4ccnc(N)c4Cl)c(N)n3)CC2)C1N
Found: false

----------
Test system: PDC KRAS tumor spheroids with HUVEC/MSC, viability
assay-info: Anticancer human tumor 349418-098-R-PDC cell line growth inhibition [KRAS2];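 note: spheroids exposed to compounds for seven days before readout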
study-conditions: second compound 10 µM; first compound 0.00316 µM; stronger effect = lower value
measured-metric: viability, T/C (%)
Could you give me the number in %? Just the number is fine.

[
  {
    "compound": "CC(=O)Nc1cccc(-n2c(=O)n(C3CC3)c(=O)c3c(Nc4ccc(I)cc4F)n(C)c(=O)c(C)c32)c1 + CC1OCC2(CCN(c3cnc(Sc4ccnc(N)c4Cl)c(N)n3)CC2)C1N",
    "unit-symbol": "%",
    "observed-result": 3.71
  },
  {
    "compound": "CC(C)n1nc(-c2ccc3oc(N)nc3c2)c2c(N)ncnc21 + COc1cc2nc(C)nc(NC(C)c3cc(N)cc(C(F)(F)F)c3)c2cc1OC1CCOC1",
    "unit-symbol": "%",
    "observed-result": 4.75
  },
  {
    "compound": "CC(C)n1nc(-c2ccc3oc(N)nc3c2)c2c(N)ncnc21 + C=CC(=O)N1CCN(c2nc(=O)n(-c3c(C)ccnc3C(C)C)c3nc(-c4c(O)cccc4F)c(F)cc23)C(C)C1",
    "unit-symbol": "%",
    "observed-result": 10.1
  },
  {
    "compound": "Cn1ncnc1[C@H]1c2n[nH]c(=O)c3cc(F)cc(c23)N[C@@H]1c1ccc(F)cc1 + CNCc1ccccc1-c1csc(C(C)Nc2nc(C)nc3cc(OC)c(OC)cc23)c1",
    "unit-symbol": "%",
    "observed-result": 0.08
  }
]

Lookup: Provide only the value of recorded viability, T/C for CCN1CCN(Cc2ccc(Nc3ncc(F)c(-c4cc(F)c5nc(C)n(C(C)C)c5c4)n3)nc2)CC1 + CC1OCC2(CCN(c3cnc(Sc4ccnc(N)c4Cl)c(N)n3)CC2)C1N
Found: 68.6

Lookup: Provide only the value of recorded viability, T/C for CCN1CCN(Cc2ccc(Nc3ncc(F)c(-c4cc(F)c5nc(C)n(C(C)C)c5c4)n3)nc2)CC1 + COc1cc2nc(C)nc(NC(C)c3cc(N)cc(C(F)(F)F)c3)c2cc1OC1CCOC1
Found: 11.7

Lookup: Provide only the value of recorded viability, T/C for CN(C)C/C=C/C(=O)Nc1cc2c(Nc3ccc(F)c(Cl)c3)ncnc2cc1O[C@H]1CCOC1 + C=CC(=O)N1CCN(c2nc(=O)n(-c3c(C)ccnc3C(C)C)c3nc(-c4c(O)cccc4F)c(F)cc23)C(C)C1
Found: 35.9

The reported numbers originate from PubChem BioAssay AID1963866.
